Listed compounds paired with reported IC50
# Tested System: Pim2 kinase (Homo sapiens, UniProt Q9P1W9)
# Sequence (Q9P1W9 whole entry): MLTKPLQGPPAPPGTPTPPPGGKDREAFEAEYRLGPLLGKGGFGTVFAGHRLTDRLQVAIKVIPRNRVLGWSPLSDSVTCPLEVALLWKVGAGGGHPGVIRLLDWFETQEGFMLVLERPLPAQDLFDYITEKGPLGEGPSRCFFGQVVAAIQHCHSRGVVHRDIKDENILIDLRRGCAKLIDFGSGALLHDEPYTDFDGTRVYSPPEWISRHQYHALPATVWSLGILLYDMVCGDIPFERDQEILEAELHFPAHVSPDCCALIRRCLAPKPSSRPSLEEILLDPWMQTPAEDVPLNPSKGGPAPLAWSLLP
# Test Protocol: Pim2 ATP depletion assay;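 note: Luciferase-based luminescent readout of ATP remaining after PIM2 phosphorylates a BAD peptide, final 5 nM enzyme, 4 µM ATP, 10 µM peptide, 2.5% DMSO, run to roughly half ATP consumption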
# Assay type: biochemical
# Conditions: read-out: IC50 (μM) PIM2

Assign IC50 to the following record: Nc1cc(C(F)(F)F)c(-c2ccc(N)c(C(=O)Nc3cnccc3N3CCC[C@H](N)C3)n2)cn1 [Example 483]
< 1 µM

Assign IC50 to the following record: NC1CC(C(F)(F)F)CN(c2ccncc2NC(=O)c2nc(-c3ccccc3F)ccc2F)C1 (centres unmarked) [Example 280]
< 1 µM

Assign IC50 to the following record: Nc1ccc(-c2c(F)cccc2F)nc1C(=O)Nc1cnccc1N1C[C@@H](N)C[C@H](OC(=O)c2ccccc2)C1 [Example 295]
1 to 10 µM

Assign IC50 to the following record: Nc1cnc(-c2c(F)cccc2F)nc1C(=O)Nc1cnccc1N1CC[C@@H](F)[C@H](N)C1 (stereo in doubt) [Example 256]
< 1 µM

Assign IC50 to the following record: Cc1ccc(S(=O)(=O)N2CCCCC2)cc1-c1ccc(N)c(C(=O)Nc2cnccc2N2CCC[C@H](N)C2)n1 [Example 318]
< 1 µM

Assign IC50 to the following record: NCC(=O)N1CCN(c2ccncc2NC(=O)c2nccnc2N)CC1 [Example 189]
1 to 10 µM

More entries:
Assign IC50 to the following record: Nc1nc(N)c(C(=O)Nc2[nH]c(=O)ncc2N2CCCCC2)nc1Cl [Example 131]
< 1 µM

Assign IC50 to the following record: Nc1cccnc1C(=O)Nc1ccncc1N1CCCC(N)C1 (centres unmarked) [Example 174]
< 1 µM

Assign IC50 to the following record: COc1ccc(F)c(-c2nc(C(=O)Nc3cnccc3N3CCC[C@H](N)C3)c(N)cc2F)c1 [Example 502]
< 1 µM
